experiment: yeast display, Sf9 membrane polyspecificity reagent, FACS + sequencing; frameworks hold sequencing errors
readout-name: polyreactivity (PSR sort gate)

| chain | polyreactivity (PSR sort gate) |
| --- | --- |
| QVQLVESGGGLVQAGGSLRLSCADSGRTIYSNAMGWNIQAPGKERELVAAITGSSGSTYYADSVKGRFTISRDNAKNTVYLQMYSLKPEDTAVYYCAASCYGSLVRQLRLRGQGTQVTVSS | low polyreactivity |
| QVQLVESGGGLVQAGGSLRLSCADSGRTFRYYAMGWYRQAPGKERELVAAITSGGSTYYADSVKGRFTISRDNAKNTVYLQMNSLKPEDTAVYYCAAARYEPFIYDYGYWGQGTQVTVSS | low polyreactivity |
| QVQLVESGGGLVQAGGSLRLSCAASGLTFWDNAMGWYRQAPGKERELVAAITRSGGSTHYADSVKGRFTISRDNAKNTVYLQMNSLKPEDTAVYYCAADYDFYDFSYQSWSEENYWGQGTQVTVSS | low polyreactivity |
| QVQLVESGGGLVQAGGSLRLSCAASGRTFGANDMGWYRQAPGKDSELVAAITYSGGRTNYADSVKGRFTISRDNAKNSVYLQMNSLKPEDTAVYYCAAGGWRDRSRYNYWGQGTQVTVSS | high polyreactivity |

Please look up its polyreactivity (PSR sort gate): "QGQLVESGGGLVQAGGSLRLSCAASGSTFYLNAMGWYRQAPGKERELVATITRRGGRTYYADSVKGRFTISRDNAKNTVYLKMNSLKPEDTAVYYCNKGGISPGDALYGYWGQGTQVTVSS"
low polyreactivity

Please look up its polyreactivity (PSR sort gate): "QVQLVESGGGLVQAGGSLRLSCAASGSISPVYAMGWYRQAPGKERELVAAYADSVKGRFTISRDNAKNTVYLQMNSLIPEDTAVYYCNVVETSQELGWQAFDYWGQGTQVTVSS"
low polyreactivity

Please look up its polyreactivity (PSR sort gate): "QVQLVESGGGLVQAGGSLRLSCASSGPTFNEYAMAWYRQAPRKERELVARITRGGSTYYADSVKGRFTISRDNAKNTFYFQINSLIPEDTAVYEFAADLSLLYGGYWITDYDYWVQGTQVTVSS"
low polyreactivity

Please look up its polyreactivity (PSR sort gate): "QVQLVESGGGLVQAGCSLRLSCAASGRTLFKYAMGWYRQAPGKERELVAVISWGGGITYYADSVKGRFTISRDNAKNTVYLKMNSLKPEDTAVYYCATDSHARFYRYYWGQGTQVTVSS"
low polyreactivity

Please look up its polyreactivity (PSR sort gate): "QVQLVESGGGLVEAGGSLRLSCAASGFIFGGYDMGWYRPAPGKQRELVAAITRSGGSTYYADSVKGRFTISRDNAKNTVYLEMNSLKPEDTAVYYCAAERQPYRTSSYNYWGQGTQVTVSS"
high polyreactivity

###

assay: yeast display, Sf9 membrane polyspecificity reagent, FACS + sequencing; frameworks hold sequencing errors
readout-name: polyreactivity (PSR sort gate)

Example cases with answers are listed next.
| chain | readout-name | result |
| --- | --- | --- |
| QVQLVESGGGLVQAGGSLRLSCAASGRTFWGYTMGWYRQAPGKERELVAAITASGGSTRYADSVKGRFTISRDNAKNTVYLQMNSLKPEDTAVYYCASRGQYFTDYYYRGNYWGQGTQVTVSS | polyreactivity (PSR sort gate) | high polyreactivity |
| QVQLVESVGCLVQAGGSLRLSCAASGNIITNNAMGWYRQAPGKERELVAAITRGGNTNYADSVKGRFTISRDNAKKTVYLQMKSLKPEDTAVFYCAADRYVELLGYFFEYDYWGQGTQVTVSS | polyreactivity (PSR sort gate) | low polyreactivity |
| QVKLVDTGGGLVKAGGSLLLSCAASGSPFVWYGMGWYRQSHGKEREFDAAISTSGGRTYYADSVKGRFTISRDNAKNTVYLQMNSLKPEDTAVYYCARQPRLYFKGKLYGYWGQGTQVTVSS | polyreactivity (PSR sort gate) | high polyreactivity |
| QVQLVESGGGLVQAGGSLRLSCAASGRTFYIYAMGWYRQAPGKERELVAAITSGTSSTYYADSVKGRFTISRDNAKNTVYLQMNSLKPEDTAVYYCAASSTGYGGSTYYYWGQGTQVTVSS | polyreactivity (PSR sort gate) | low polyreactivity |
| QVQLVESGGGLVQAGGSLRLSCAPSGIIFRGNAMGWYRQAPGKEREFVAAISLRGSRTYYADSVKGRFTISRDNAKNTVYLQMNSLKQEDTAVYYCAATRPYRYNYWGQGTQVTVSS | polyreactivity (PSR sort gate) | high polyreactivity |
| QVQLVESGGGLVQAGGSLRLSCAASGRTLPGYVMGWYRQEPGKERELVSTISSGDRTNYADSVKGRFTISRDNAKNTVYLQMNSLKPEETAVYYCAAPYVASGYYIWSPWLYDSWGQGTQVTVSS | polyreactivity (PSR sort gate) | low polyreactivity |

Please look up its polyreactivity (PSR sort gate): "QVQLVESGGGLVQAGGSLRLSCAASGSIFKKYAMGWYRQAPGKERELVAAITRGTYYADSVKGRFTISRDNAKNTVYLQMNSVKPVDTAVYYCNREYWGRGYYRVRGEYVYWGQGTQVTVSS"
low polyreactivity

Please look up its polyreactivity (PSR sort gate): "QVQLVESGGGLVQAGGSLRLSCAASGLIFGRYAMGWYRQAPGKERELVAAINRNGGSTYYADSVKGRFTISRDNAKNTVYLQMNSLKPEDTAVYYCAAQYRSSRGHYDYWGQGTQVTVSS"
high polyreactivity

Please look up its polyreactivity (PSR sort gate): "QVQLVESGGGLVQAGGSLRLSCAASGSTFSSYAMGWYRQAPGKERELVAAISRRGGRTYYADSVKGRFTISRDNAKNTVYLQMNRLKPEDTAVYYCAADWGVRDEYYYWGQGTQVTVSS"
high polyreactivity

Please look up its polyreactivity (PSR sort gate): "QVQHVESGGGLVQAGGSLRLSCAASGRIFTYYTMGWYRQAPGKERELVAAISWSGGRTYYADSVKGRFTISRDNAKNTVYLQMNSLKPEDTAVYYCARLQDSRESPWRGYYWGQGTQVTVSS"
high polyreactivity

Please look up its polyreactivity (PSR sort gate): "QVQLVESGGGLVQAGGSLRLSCAASGSNFVVYAMGWYRQAPGKERELVAAISWGIGSTYYADSVKGRFTISRDNAKNTVYLHMNSLKPQDTAVYYCAADTDIVLYDYWGQGTQVTVSS"
low polyreactivity

Please look up its polyreactivity (PSR sort gate): "QVQLVESGGGLVQAGGSLRLSCAASGFIFDSNAMGWYRQAPGKERELVAAISRRGGSTYYADSVKGRFTISRDNAKNTVYLQMNSLKPEDTAVYYCNAEYGSHVKYGYWGQGTQVTVSS"
high polyreactivity

###

test: yeast display, Sf9 membrane polyspecificity reagent, FACS + sequencing; frameworks hold sequencing errors
readout-name: polyreactivity (PSR sort gate)

Example cases with answers are listed next.
| chain | result |
| --- | --- |
| QVQLVESGGGLVQAGGSLRLSSAASGSIFELNAMGWYRQAPGKERELVAAIRWRTGRTYYADSVKGRFTISRDNAKNTVYLQMNSLKPEDTAVYYCARVAPASGVRWYYYWGQGTQVTVSS | high polyreactivity |
| QVQLVESGGGLVQAGGSLRLSCAASGRIFTSNVMGWYRQAPGKERELVAAISWTGGNTYYADSVKGRFTISRDKAKNSVYLQMNSLKPEDTAVYYCAVTYWSAVFIPNKYDYWGQGTQVTVSS | low polyreactivity |
| QVQLVESGGGLVQAGGSLRLSCAASGSTLANYAMGWYRQAPGKERELVAAINSGGSTYYADSVKGRFTISRDNAKNTVYLQMNSLKPEDTAVYYCAAETPNYYGWWEPVWHYYWGQGTQVTVSS | high polyreactivity |
| QLQLVESGGGLVQAGGSLRLSCAASGFTFGVYAMGWYRQAPGKERELVAAISTTVGSTYYADSVKGRYTISRDNAKNTVYLQMNSLKPEDTAVYYCAAEYTGYISYYIYEDWGQGTQVTVSS | low polyreactivity |

Here's the next entry for you.
Please look up its polyreactivity (PSR sort gate): "QVQLVESGGGLVQAGGSLRLSCAASGRTFWTNAMGWYRQAPGKEREFVAAISWRGASTFYADSVKGRFTISRDNAKNTVYLQMNSLNPEDTAVYYCAAQSRTRSFYGKYDSWGQATQVTVSS"
low polyreactivity

###

experiment: yeast display, Sf9 membrane polyspecificity reagent, FACS + sequencing; frameworks hold sequencing errors
readout-name: polyreactivity (PSR sort gate)

Example cases with answers are listed next.
| chain | polyreactivity (PSR sort gate) |
| --- | --- |
| QVQLVESGGCLVQAGGSLRLSCAASGRTLYRNAMGWYRPAPGKERELVARITWSGASTYYADSVKGRFTISRDNAKNTVYLQMNSLKPEDTAVYYCAAQYLSRRYGPYYTYNYWGQGTQVTVSS | high polyreactivity |
| QVQLVESGGGLVQAGGSLRLSCAASGSIIKWYAMGWYRQAPGKERELVAAISASGGSTYYADSVKGRFTISRDNAKHTVYLQMNSLKPEDTAVYYCNTDHYYSSRHYDYWGQGTQVTVSS | low polyreactivity |
| QVQLVESGGGLVQAGGSLRLSCAASGSTFGGYAMGWSRQAPGKERELVARITRSGGRTYYADSVKGRFTISRDNAKNTVYLQMNSLKPEDTAVYYCNKQLLISRQIQYEYWGQGTQVTVSS | low polyreactivity |
| QVQLVESGGGLVQAGGSLRLSCAASGFTLRLYVMGWYRQAPGKERELVAAITSSGGSTYYADSVKGRFTISRDNAKNTVYLQMNSLKPEDTAVYYCAAVNRKSQLYGYWGQGTQVTVSS | high polyreactivity |

Please look up its polyreactivity (PSR sort gate): "QVQLVESGGGLVQAGGSLRLSCAASGRIFKYYAMGWYRQAPGKERELVARISSSGGSTYYADSVKGRFTISRDNAKNTVYLQMNSLKPEDTAVYYCNARYYSTKYFLGDYWGQGTQVTVSS"
high polyreactivity
